This collection of values is drawn from ChEMBL document CHEMBL2417481.

tested on: Cytomegalovirus; assay: Antiviral activity against Cytomegalovirus AD-169 infected in human HEL cells assessed as reduction in virus plaque formation; assay type: functional, organism-based; settings: Human betaherpesvirus 5, AD-169, HEL
compounds and their reported EC50

- compound: "COc1ccc(/C=C/c2nc(N)[nH]c(=O)c2Br)cc1OC"
  EC50: "> 100 µM"
- compound: "CCCCCc1nc(N)[nH]c(=O)c1Br"
  EC50: "> 4 µM"
- compound: "CCCc1nc(N)[nH]c(=O)c1Br"
  EC50: "> 100 µM"
- compound: "CCCCc1nc(N)[nH]c(=O)c1Br"
  EC50: "> 20 µM"
- compound: "Nc1nc(CCc2ccccc2)c(Br)c(=O)[nH]1"
  EC50: "> 100 µM"
- compound: "Nc1nc(CC(O)c2ccccc2C(F)(F)F)c(Br)c(=O)[nH]1 (stereo unspecified)"
  EC50: "> 100 µM"
